FYI, the data here is from ChEMBL document CHEMBL1201862.

System: 786-0
Assay: NCI tumour cell line growth inhibition, 48 h
Activity calls are given as the source filed them. No stated cut-off is given here; in the data, active = GI50 up to about 1.1 µM and inactive = higher. Where a SMILES comes first, the peptide text is derived from it. [ ]: non-standard residue; d: D form. Phe(4-NO2) = N[CH](Cc1ccc([N+](=O)[O-])cc1)C(=O)O
Please state which outcome applies, choosing from label 1 for active, label 0 for inactive

# count of solved cases: 6
compound	category.label
N#Cc1cc(-c2nc3c(F)cccc3s2)ccc1N	label 0
Cc1c(Cl)c(C)c(Cl)c(O)c1Cl	label 0
CC(NC(=O)C(Cc1ccc([N+](=O)[O-])cc1)NC(=O)C(N)CCCCN)C(=O)NC(Cc1ccc([N+](=O)[O-])cc1)C(N)=O (centres undefined) (H-K[Phe(4-NO2)]A[Phe(4-NO2)]-NH2; configuration not given here)	label 0
O=C(O)/C(=C/c1c(O)ccc2ccccc12)c1csc(-c2nc(/C(=C\c3c(O)ccc4ccccc34)C(=O)O)cs2)n1	label 0
Cc1cccc(/C=N/NC(=S)NC(C)(C)C)n1	label 0
COc1c2c3c4c(c(OC)c(=O)c5c(O)cc(OC)c(c6c(OC)cc(O)c(c1=O)c63)c54)C(C(C)O)C2C(C)=O (centres undefined)	label 1

query: Which outcome was entered for the compound `Oc1ccccc1/C=N/c1ccccc1/N=C/c1ccccc1O` in this test?
result: label 0

query: Which outcome was entered for the compound `C(=N\c1ccc(-c2nc3ccccc3[nH]2)cc1)/c1ccco1` in this test?
result: label 0

query: Which outcome was entered for the compound `Clc1nc2c(-c3cccs3)ncnc2n1Cc1ccccc1` in this test?
result: label 0
